Observed IC50 for Poly [ADP-ribose] polymerase 1 (Homo sapiens, UniProt P09874), reported per entry below.
MEASURED_QUANTITY: IC50

>>> test_value("O=C1N(CCO)c2cccc(Cl)c2C12CCN(c1nc3c(c(=O)[nH]1)CCCC3)CC2")
"> 20 µM"
>>> test_value("COc1ccc(N2CCN(c3nc4c(c(=O)[nH]3)COCC4)CC2)cc1")
"> 20 µM"
>>> test_value("COc1ccc(N2CCN(c3nc4c(c(=O)[nH]3)CCCC4)CC2)cc1")
"> 20 µM"
>>> test_value("O=C1N(CCO)c2cccc(F)c2C12CCN(c1nc3c(c(=O)[nH]1)CCCC3)CC2")
"> 20 µM"
>>> test_value("O=c1[nH]c(N2CCC3(CC2)CN(CCO)c2ccccc23)nc2c1CCCC2")
"> 20 µM"
>>> test_value("O=c1[nH]c(N2CCC3(CC2)NCc2ccccc23)nc2c1CCCC2")
"> 20 µM"
>>> test_value("O=c1[nH]c(N2CCC3(CC2)CN(CCO)c2cc(Cl)cc(Cl)c23)nc2c1CCCC2")
"> 20 µM"
>>> test_value("O=c1[nH]c(N2CCC3(CC2)CN(CCO)c2cc(F)cc(F)c23)nc2c1CCCC2")
"20 to 100 µM"
>>> test_value("O=c1[nH]c(N2CCC3(CC2)CN(CCO)c2cccc(F)c23)nc2c1CCCC2")
"> 20 µM"
>>> test_value("CS(=O)(=O)c1ccc(-c2nnc(/C=C/c3nnc(-c4ccc(C#N)cc4)o3)n2-c2ccccc2Cl)nc1")
"> 100 µM"
>>> test_value("COc1ccccc1N1CCN(c2nc3c(c(=O)[nH]2)CCCC3)CC1")
"20 to 100 µM"
>>> test_value("O=C1NC2(CCN(c3nc4c(c(=O)[nH]3)CCCC4)CC2)c2ccccc21")
"> 20 µM"
>>> test_value("O=C1Nc2ccccc2C12CCN(c1nc3c(c(=O)[nH]1)CCCC3)CC2")
"> 20 µM"
>>> test_value("COc1ccccc1N1CCN(c2nc3c(c(=O)[nH]2)CSCC3)CC1")
"> 20 µM"
>>> test_value("O=C1N(CCO)c2cc(Cl)cc(Cl)c2C12CCN(c1nc3c(c(=O)[nH]1)CCCC3)CC2")
"> 20 µM"
>>> test_value("COc1cccc(N2CCN(c3nc4c(c(=O)[nH]3)CSCC4)CC2)c1")
"> 20 µM"
>>> test_value("O=C1Oc2ccccc2C12CCN(c1nc3c(c(=O)[nH]1)CCCC3)CC2")
"> 20 µM"

----------
EXPERIMENT: physchem
MEASUREMENT_PARAMETERS: phosphate buffer, pH 7.4
MEASURED_QUANTITY: solubility at 1 h, 200 µM (µg/mL)

>>> test_value("O=C1Nc2cc(Cl)ccc2C12CCN(c1nc3c(c(=O)[nH]1)CCCC3)CC2")
1.8
>>> test_value("O=c1[nH]c(N2CCC3(CC2)CN(CCO)c2cccc(Cl)c23)nc2c1CCCC2")
2.5
>>> test_value("COc1ccccc1C1=CCN(c2nc3c(c(=O)[nH]2)CCCC3)CC1")
14.2
>>> test_value("O=c1[nH]c(N2CCC3(CC2)CN(CCO)c2cc(Cl)cc(Cl)c23)nc2c1CCCC2")
5.2
>>> test_value("N#Cc1cccc2c1C1(CCN(c3nc4c(c(=O)[nH]3)CCCC4)CC1)C(=O)N2")
5.3
>>> test_value("COc1ccc(N2CCN(c3nc4c(c(=O)[nH]3)CCCC4)CC2)cc1")
4.6
>>> test_value("O=c1[nH]c(N2CCC3(CC2)CNc2cc(Cl)ccc23)nc2c1CCCC2")
9.2
>>> test_value("COc1ccccc1N1CCN(c2nc3c(c(=O)[nH]2)CNCC3)CC1")
66.4
>>> test_value("O=c1[nH]c(N2CCC3(CC2)CNc2cccc(Br)c23)nc2c1CCCC2")
8.9
>>> test_value("COc1ccccc1N1CCN(c2nc3c(c(=O)[nH]2)COCC3)CC1")
12.3
>>> test_value("O=C1Nc2cccc(Br)c2C12CCN(c1nc3c(c(=O)[nH]1)CCCC3)CC2")
1.9
>>> test_value("COc1ccccc1C1CCN(c2nc3c(c(=O)[nH]2)CCCC3)CC1")
1
>>> test_value("COc1ccc(N2CCN(c3nc4c(c(=O)[nH]3)COCC4)CC2)cc1")
6
>>> test_value("O=c1[nH]c(N2CCC3(CC2)CN(CCO)c2cccc(F)c23)nc2c1CCCC2")
74.6
>>> test_value("O=C1N(CCO)c2cc(Cl)cc(Cl)c2C12CCN(c1nc3c(c(=O)[nH]1)CCCC3)CC2")
55.9
>>> test_value("COc1ccccc1N1CCN(c2nc3c(c(=O)[nH]2)CN(C)CC3)CC1")
69.7
>>> test_value("O=C1N(CCO)c2cccc(F)c2C12CCN(c1nc3c(c(=O)[nH]1)CCCC3)CC2")
80.1
>>> test_value("COc1ccc(N2CCN(c3nc4c(c(=O)[nH]3)CC(F)(F)CC4)CC2)cc1")
1.1
>>> test_value("O=c1[nH]c(N2CCC3(CC2)CNc2cc(Cl)cc(Cl)c23)nc2c1CCCC2")
11
>>> test_value("Oc1nc(N2CCN(c3ccccc3)CC2)nc2c1CCCC2")
4.9

----------
EXPERIMENT: Half life in ICR mouse at 50 mg/kg, ip
Assay type: ADME, organism-based
MEASUREMENT_PARAMETERS: in vivo
MEASURED_QUANTITY: half-life (h)

>>> test_value("O=C1N(CCO)c2cc(F)cc(F)c2C12CCN(c1nc3c(c(=O)[nH]1)CCCC3)CC2")
3.6
>>> test_value("O=c1[nH]c(N2CCC3(CC2)CN(CCO)c2cc(F)cc(F)c23)nc2c1CCCC2")
2.8
>>> test_value("O=C1N(CCO)c2cccc(Cl)c2C12CCN(c1nc3c(c(=O)[nH]1)CCCC3)CC2")
4.1
>>> test_value("O=c1[nH]c(N2CCC3(CC2)CN(CCO)c2cccc(Cl)c23)nc2c1CCCC2")
4.8

----------
EXPERIMENT: in vitro
MEASUREMENT_PARAMETERS: human, liver microsomes
Description: Stability in human liver microsomes assessed as parent compound remaining at 1 uM measured after 30 mins in presence of NADPH by LC-MS/MS analysis
MEASURED_QUANTITY: remaining at 0.5 h, 1 µM (%)

>>> test_value("O=c1[nH]c(N2CCC3(CC2)COc2ccccc23)nc2c1CCCC2")
64.3
>>> test_value("COc1ccccc1N1CCN(c2nc3c(c(=O)[nH]2)CCCC3)CC1")
84.1
>>> test_value("O=C1Nc2ccccc2C12CCN(c1nc3c(c(=O)[nH]1)CCCC3)CC2")
84.3
>>> test_value("O=c1[nH]c(N2CCC3(CC2)CN(CCO)c2cccc(Cl)c23)nc2c1CCCC2")
6.1
>>> test_value("CS(=O)(=O)c1ccc(-c2nnc(/C=C/c3nnc(-c4ccc(C#N)cc4)o3)n2-c2ccccc2Cl)nc1")
100
>>> test_value("Oc1nc(-c2ccc(C(F)(F)F)cc2)nc2c1CSCC2")
78.4
>>> test_value("O=c1[nH]c(N2CCC3(CC2)CNc2ccccc23)nc2c1CCCC2")
77.9
>>> test_value("O=c1[nH]c(N2CCC3(CC2)CN(CCO)c2cc(F)cc(F)c23)nc2c1CCCC2")
5.9
>>> test_value("O=C1N(CCO)c2cccc(Cl)c2C12CCN(c1nc3c(c(=O)[nH]1)CCCC3)CC2")
28.9
>>> test_value("COc1ccccc1C1CCN(c2nc3c(c(=O)[nH]2)CCCC3)CC1")
62.1

----------
STUDY_TARGET: Poly [ADP-ribose] polymerase tankyrase-1 (Homo sapiens, UniProt O95271)
Sequence (O95271 whole entry): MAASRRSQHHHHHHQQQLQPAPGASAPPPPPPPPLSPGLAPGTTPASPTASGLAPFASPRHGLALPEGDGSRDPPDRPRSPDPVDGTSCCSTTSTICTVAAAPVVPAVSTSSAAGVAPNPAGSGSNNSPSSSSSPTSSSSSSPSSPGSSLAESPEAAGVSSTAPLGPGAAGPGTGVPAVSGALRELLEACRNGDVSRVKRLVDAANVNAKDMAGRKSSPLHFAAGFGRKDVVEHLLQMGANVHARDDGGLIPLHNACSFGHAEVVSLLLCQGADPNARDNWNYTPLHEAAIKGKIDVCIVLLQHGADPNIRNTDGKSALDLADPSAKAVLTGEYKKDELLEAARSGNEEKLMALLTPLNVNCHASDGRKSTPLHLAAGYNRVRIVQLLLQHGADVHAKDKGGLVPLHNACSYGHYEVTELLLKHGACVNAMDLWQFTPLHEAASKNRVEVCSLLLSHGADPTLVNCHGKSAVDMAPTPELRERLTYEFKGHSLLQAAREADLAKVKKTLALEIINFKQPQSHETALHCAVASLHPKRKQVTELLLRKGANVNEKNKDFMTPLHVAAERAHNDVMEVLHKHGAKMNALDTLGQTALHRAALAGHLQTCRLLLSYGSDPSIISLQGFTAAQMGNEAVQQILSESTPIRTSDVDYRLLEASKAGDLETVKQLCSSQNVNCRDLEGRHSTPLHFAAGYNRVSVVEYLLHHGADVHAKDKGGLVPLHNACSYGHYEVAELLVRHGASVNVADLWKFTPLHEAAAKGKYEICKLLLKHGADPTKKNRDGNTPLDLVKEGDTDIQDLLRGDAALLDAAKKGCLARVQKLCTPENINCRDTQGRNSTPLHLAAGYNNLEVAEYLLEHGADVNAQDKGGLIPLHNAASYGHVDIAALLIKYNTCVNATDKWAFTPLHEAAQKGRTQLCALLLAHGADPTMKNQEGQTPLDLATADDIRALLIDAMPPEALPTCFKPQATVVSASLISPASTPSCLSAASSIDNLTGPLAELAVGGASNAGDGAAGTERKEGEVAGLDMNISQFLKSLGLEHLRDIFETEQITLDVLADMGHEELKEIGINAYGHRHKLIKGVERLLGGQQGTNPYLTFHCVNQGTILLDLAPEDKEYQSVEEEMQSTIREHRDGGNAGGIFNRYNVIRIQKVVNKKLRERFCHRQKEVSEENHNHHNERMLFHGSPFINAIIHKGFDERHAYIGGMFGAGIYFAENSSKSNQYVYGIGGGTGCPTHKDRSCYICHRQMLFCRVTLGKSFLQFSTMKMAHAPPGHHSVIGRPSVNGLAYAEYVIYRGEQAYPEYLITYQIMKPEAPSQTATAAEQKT
Bucketed by reported IC50, buckets being lower bin = under 10 nM, middle bin = from 10 nM up to 40 nM, upper bin = 40 nM and over

>>> cat("COc1ccccc1N1CCN(c2nc3c(c(=O)[nH]2)CCCC3)CC1")
"middle bin"
>>> cat("COc1ccccc1C1=CCN(c2nc3c(c(=O)[nH]2)CCCC3)CC1")
"middle bin"
>>> cat("COc1ccccc1N1CCCN(c2nc3c(c(=O)[nH]2)CCCC3)CC1")
"upper bin"
>>> cat("O=C1NC2(CCN(c3nc4c(c(=O)[nH]3)CCCC4)CC2)c2ccccc21")
"upper bin"
>>> cat("O=c1[nH]c(N2CCC3(CC2)CN(CCO)c2cccc(Cl)c23)nc2c1CCCC2")
"middle bin"
>>> cat("O=C1Nc2cccc(Br)c2C12CCN(c1nc3c(c(=O)[nH]1)CCCC3)CC2")
"lower bin"
>>> cat("O=C1Nc2cc(Cl)ccc2C12CCN(c1nc3c(c(=O)[nH]1)CCCC3)CC2")
"middle bin"
>>> cat("COc1ccccc1N1CCN(c2nc3c(c(=O)[nH]2)CC(C)(C)CC3)CC1")
"upper bin"
>>> cat("O=C1Oc2ccccc2C12CCN(c1nc3c(c(=O)[nH]1)CCCC3)CC2")
"middle bin"
>>> cat("COc1ccccc1C1CCN(c2nc3c(c(=O)[nH]2)CCCC3)CC1")
"upper bin"
>>> cat("O=c1[nH]c(N2CCC3(CC2)NCc2ccccc23)nc2c1CCCC2")
"upper bin"
>>> cat("O=C1N(CCO)c2cccc(F)c2C12CCN(c1nc3c(c(=O)[nH]1)CCCC3)CC2")
"lower bin"
>>> cat("COc1ccc(N2CCN(c3nc4c(c(=O)[nH]3)CC(F)(F)CC4)CC2)cc1")
"upper bin"
>>> cat("O=C1Nc2cc(Cl)cc(Cl)c2C12CCN(c1nc3c(c(=O)[nH]1)CCCC3)CC2")
"lower bin"
>>> cat("COc1ccccc1N1CCC(c2nc3c(c(=O)[nH]2)CCCC3)CC1")
"upper bin"
>>> cat("O=c1[nH]c(N2CCC3(CC2)COc2ccccc23)nc2c1CCCC2")
"upper bin"
>>> cat("O=c1[nH]c(N2CCC3(CC2)CNc2cc(F)cc(F)c23)nc2c1CCCC2")
"lower bin"
>>> cat("COc1ccccc1N1CCN(c2nc3c(c(=O)[nH]2)CSCC3)CC1")
"lower bin"
>>> cat("O=c1[nH]c(N2CCC3(CC2)CN(CCO)c2cccc(F)c23)nc2c1CCCC2")
"lower bin"

Measured values drawn from ChEMBL document CHEMBL4387706 for this set.
